Reported pKi values, hCA IX (Homo sapiens).
// pKi is dimensionless: -log10 of concentration (M)

Worked examples, 8 molecules total:
[
  {
    "molecule": "Cc1ccc(C2=C/C(=C\\c3ccc(F)cc3)C(=O)N2CCc2ccc(S(N)(=O)=O)cc2)cc1 [Compound 3f]",
    "target-desc": "hCA IX (Homo sapiens)",
    "result-number": 6.99
  },
  {
    "molecule": "NS(=O)(=O)c1ccc(CCN2C(=O)/C(=C/c3ccccc3)C=C2c2ccccc2)cc1 [Compound 3a]",
    "target-desc": "hCA IX (Homo sapiens)",
    "result-number": 7.03
  },
  {
    "molecule": "CC(C)(C)c1ccc(C2=C/C(=C\\c3ccc(F)cc3)C(=O)N2CCc2ccc(S(N)(=O)=O)cc2)cc1 [Compound 3r]",
    "target-desc": "hCA IX (Homo sapiens)",
    "result-number": 6.38
  },
  {
    "molecule": "CC(C)(C)c1ccc(C2=C/C(=C\\c3ccc(Br)cc3)C(=O)N2CCc2ccc(S(N)(=O)=O)cc2)cc1 [Compound 3t]",
    "target-desc": "hCA IX (Homo sapiens)",
    "result-number": 6.41
  },
  {
    "molecule": "NS(=O)(=O)c1ccc(CCN2C(=O)/C(=C/c3ccc(Cl)cc3)C=C2c2ccc(Cl)cc2)cc1 [Compound 3o]",
    "target-desc": "hCA IX (Homo sapiens)",
    "result-number": 7.16
  },
  {
    "molecule": "CC(C)(C)c1ccc(C2=C/C(=C\\c3ccc(Cl)cc3)C(=O)N2CCc2ccc(S(N)(=O)=O)cc2)cc1 [Compound 3s]",
    "target-desc": "hCA IX (Homo sapiens)",
    "result-number": 6.36
  },
  {
    "molecule": "CCc1ccc(C2=C/C(=C\\c3ccc(Br)cc3)C(=O)N2CCc2ccc(S(N)(=O)=O)cc2)cc1 [Compound 3l]",
    "target-desc": "hCA IX (Homo sapiens)",
    "result-number": 7.11
  },
  {
    "molecule": "NS(=O)(=O)c1ccc(CCN2C(=O)/C(=C/c3ccccc3)C=C2c2ccc(Cl)cc2)cc1 [Compound 3m]",
    "target-desc": "hCA IX (Homo sapiens)",
    "result-number": 7.26
  }
]

Attention now shifts to the item below.
# returns recorded pKi (system: hCA IX (Homo sapiens)) for CCc1ccc(C2=C/C(=C\c3ccccc3)C(=O)N2CCc2ccc(S(N)(=O)=O)cc2)cc1 [Compound 3i]
7.11

* * *

# target-desc: UniProt:O43570
# Sequence (O43570 25-354): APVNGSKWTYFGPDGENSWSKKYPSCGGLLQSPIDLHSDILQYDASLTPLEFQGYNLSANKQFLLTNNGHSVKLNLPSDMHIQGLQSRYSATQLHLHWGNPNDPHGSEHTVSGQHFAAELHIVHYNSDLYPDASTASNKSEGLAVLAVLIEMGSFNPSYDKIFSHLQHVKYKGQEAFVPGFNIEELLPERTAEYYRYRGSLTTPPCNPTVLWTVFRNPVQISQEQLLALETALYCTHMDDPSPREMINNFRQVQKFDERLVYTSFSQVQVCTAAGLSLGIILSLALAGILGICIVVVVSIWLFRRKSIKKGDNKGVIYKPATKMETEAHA
# run-description: Stopped-flow CO2 hydrase assay, hCA XII
# measurement-parameters: stopped flow, mean from 3 assays, errors 5–10%
Ki less than 0.06 µM is yes; Ki greater than or equal to 0.06 µM is no.

Lab note: Ki threshold 0.06 µM. Does this compound come in strictly under it? CCc1ccc(C2=C/C(=C\c3ccc(Br)cc3)C(=O)N2CCc2ccc(S(N)(=O)=O)cc2)cc1 [Compound 3l]
yes

I'd appreciate it if you could check whether NS(=O)(=O)c1ccc(CCN2C(=O)/C(=C/c3ccc(Br)cc3)C=C2c2ccccc2)cc1 [Compound 3d] has Ki smaller than 0.06 µM.
no

Report whether reported Ki is lower than 0.06 µM (strictly) for Cc1ccc(C2=C/C(=C\c3ccc(F)cc3)C(=O)N2CCc2ccc(S(N)(=O)=O)cc2)cc1 [Compound 3f]
yes

Find out if reported Ki for NS(=O)(=O)c1ccc(CCN2C(=O)/C(=C/c3ccc(Cl)cc3)C=C2c2ccccc2)cc1 [Compound 3c] is less than 0.06 µM
no

Could you please tell me whether Ki recorded for CC(C)(C)c1ccc(C2=C/C(=C\c3ccc(Cl)cc3)C(=O)N2CCc2ccc(S(N)(=O)=O)cc2)cc1 [Compound 3s] is less than 0.06 µM?
no

# strict comparison: is reported Ki < 0.06 µM? input = CCc1ccc(C2=C/C(=C\c3ccccc3)C(=O)N2CCc2ccc(S(N)(=O)=O)cc2)cc1 [Compound 3i]
no
